B1: glmS ribozyme (parent)
chain: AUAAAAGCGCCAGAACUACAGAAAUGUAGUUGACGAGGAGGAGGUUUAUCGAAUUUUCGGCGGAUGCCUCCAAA

Variants of: B1
Assay: self-cleavage kobs at 2500 uM GlcN6P; higher = faster cleavage; RNA array
Details: with glucosamine-6-phosphate
Variants at the floor of the assay were thinned out.
Kindly state self-cleavage kobs at 2500 uM GlcN6P for each of the entries shown.
Numbers only, in s⁻¹.

What does the record list as self-cleavage kobs at 2500 uM GlcN6P for U31G C50G ?
0.00013

Would you mind telling me what self-cleavage kobs at 2500 uM GlcN6P value was observed for A15C U31A A53G C71G ?
0.000222

Recorded self-cleavage kobs at 2500 uM GlcN6P of A6U U65G , please.
4.32e-05

What value of measured self-cleavage kobs at 2500 uM GlcN6P is listed for G32U U55G U56A ?
0.000255

Which value of self-cleavage kobs at 2500 uM GlcN6P has been reported for A12G G40A in the records?
0.000218

What measured self-cleavage kobs at 2500 uM GlcN6P goes with A53U C71U ?
0.0165

What value of self-cleavage kobs at 2500 uM GlcN6P has been recorded for this entry: G13A U54G C68A
7.33e-05

Item under review: "C16A" . Reported self-cleavage kobs at 2500 uM GlcN6P?
0.0017

Hi team, please reply with self-cleavage kobs at 2500 uM GlcN6P for each item in this list.
1. C16A U54A C67A
2. C16U U69C
3. U45A U55C
4. C67U C68U
5. A14U A52G
6. A39C G66A
7. C58G A64G C68A
8. C50G U69G

1: 0.000181; 2: 0.000683; 3: 0.00714; 4: 0.000124; 5: 0.000166; 6: 0.00181; 7: 5.81e-05; 8: 0.000126

I have 6 variants here; please give me self-cleavage kobs at 2500 uM GlcN6P for each one.
1. A15G U55G C71U
2. A12C A15U A39G
3. G40A A53G
4. A14G A15U G40U
5. C61U U65A C67U C70A
6. A42G U49G

[0.00368, 0.00201, 0.00571, 0.00279, "5.06e-05", 0.000609]

Please state, for each entry, its recorded self-cleavage kobs at 2500 uM GlcN6P.
1. C16G U55A
2. A12U A15C A42G
3. C16U U55A C68U

1. 0.00327
2. 0.0282
3. 0.00062
